- Tested on: ST512/KPC-31 mutant IMI 3.2
- assay: MIC, broth microdilution
- Format: cell-based
- test-conditions: Klebsiella pneumoniae
property-label: MIC

Below, 5 molecules whose answers are already recorded.
>>> measured_value("NC[C@H]1O[C@H](O[C@H]2[C@H](O)[C@@H](O[C@H]3O[C@H](CO)[C@@H](O)[C@H](N)[C@H]3O)[C@H](N)C[C@@H]2N)[C@H](N)C[C@@H]1O")
"> 8 µg/mL"
>>> measured_value("CC(C)(O/N=C(\\C(=O)N[C@@H]1C(=O)N2C(C(=O)[O-])=C(C[n+]3ccccc3)CS[C@H]12)c1csc(N)n1)C(=O)O")
"> 256 µg/mL"
>>> measured_value("C[C@@H](O)[C@H]1C(=O)N2C(C(=O)O)=C(S[C@@H]3CN[C@H](C(=O)N(C)C)C3)[C@H](C)[C@H]12")
"32 µg/mL"
>>> measured_value("C[C@@H](O)[C@H]1C(=O)N2C(C(=O)O)=C(SCCN=CN)C[C@H]12")
"32 µg/mL"
>>> measured_value("C[C@@H](O)[C@H]1C(=O)N2C(C(=O)O)=C(S[C@@H]3CN[C@H](C(=O)Nc4cccc(C(=O)O)c4)C3)[C@H](C)[C@H]12")
"> 8 µg/mL"

// fetch MIC for C[C@H]1[C@H](NC(=O)/C(=N\OC(C)(C)C(=O)O)c2csc(N)n2)C(=O)N1S(=O)(=O)O ; system: ST512/KPC-31 mutant IMI 3.2
> 16 µg/mL

Find MIC for C[C@H]1COc2c(N3CCN(C)CC3)c(F)cc3c(=O)c(C(=O)O)cn1c23 on ST512/KPC-31 mutant IMI 3.2 and write it down.
> 8 µg/mL
